- methodNotes: Inhibition of Saccharomyces cerevisiae FTase after 15 mins by fluorimetric analysis
Structures can show the parent of a compound that is named as a salt.
readoutKind: pIC50
Scale: pIC50 equals -log10([C]), with [C] in mol/L.

// known answers, use as guide
[[record]]
molecule = "C[C@@]12CCC(=O)c3coc(c31)C(=O)c1cc3c(cc12)C(=O)C=CC3=O [HELENAQUINONE]"
readoutkind = "pIC50"
quantitativeresult = 5.80

[[record]]
molecule = "C[C@@]12CCC(=O)c3coc(c31)C(=O)c1cc3c(O)ccc(OS(=O)(=O)O)c3cc12 [HALENAQUINOL SULFATE SODIUM]"
readoutkind = "pIC50"
quantitativeresult = 4.79

[[record]]
molecule = "C[C@@]12CCC(=O)c3coc(c31)C(=O)c1cc3c(cc12)C(=O)C1=C(NCCS1(=O)=O)C3=O [3-KETOADOCIAQUINONE B]"
readoutkind = "pIC50"
quantitativeresult = 5.43

[[record]]
molecule = "CO[C@]12OC(O)C3=C1[C@@](C)(CCC3=O)c1cc3c(OS(=O)(=O)O)ccc(O)c3cc1C2=O (stereo partly drawn) [XESTOSAPROL C METHYLACETAL]"
readoutkind = "pIC50"
quantitativeresult = 5.17

[[record]]
molecule = "C[C@@]12CCC(=O)c3coc(c31)C(=O)c1cc3c(cc12)C(=O)C1=C(C3=O)S(=O)(=O)CCN1 [3-KETOADOCIAQUINONE A]"
readoutkind = "pIC50"
quantitativeresult = 5.83


q: Item under review: CC1=CCCC2(C)C1=C(O)C(=O)c1cc3c(cc12)C(=O)C=CC3=O (stereo not drawn) [ORHALQUINONE] . Reported pIC50?
a: 6.40

----------
- Tested on: Plasmodium falciparum
- methodNotes: Antiplasmodial activity against chloroquine-resistant Plasmodium falciparum FcB1 after 48 hrs
- Assay type: functional, organism-based
- conditionDescription: FcB1/Columbia
readoutKind: IC50 (µM)
Lab book: enter the figure in µM, no units written.

[[record]]
molecule = "CC1=CCCC2(C)C1=C(O)C(=O)c1cc3c(cc12)C(=O)C=CC3=O (centres undefined) [ORHALQUINONE]"
quantitativeresult = 9.22


Kindly consider the entry below.
q: Entry under review: C[C@@]12CCC(=O)c3coc(c31)C(=O)c1cc3c(cc12)C(=O)C1=C(NCCS1(=O)=O)C3=O [3-KETOADOCIAQUINONE B] . Reported IC50?
a: 3.89

----------
- methodNotes: Selectivity ratio of IC50 for african green monkey (Cercopithecus aethiops) Vero cells to IC50 for chloroquine-sensitive Plasmodium falciparum 3D7
- Format: ADME, cell-based
- conditionDescription: read-out: Ratio IC50
readoutKind: selectivity ratio
Respond with the number and no other words.

Here's what some known entries look like.
[[record]]
compound = "C[C@@]12CCC(=O)c3coc(c31)C(=O)c1cc3c(cc12)C(=O)C1=C(NCCS1(=O)=O)C3=O"
readoutkind = "selectivity ratio"
quantitativeresult = 5

[[record]]
compound = "CC1=CCCC2(C)C1=C(O)C(=O)c1cc3c(cc12)C(=O)C=CC3=O (stereo not drawn)"
readoutkind = "selectivity ratio"
quantitativeresult = 5


Field: next compound
q: Find the recorded selectivity ratio belonging to C[C@@]12CCC(=O)c3coc(c31)C(=O)c1cc3c(cc12)C(=O)C1=C(C3=O)S(=O)(=O)CCN1 and report it.
a: 5
